Measured folding enthalpy, listed per entry.
Experiment: folding enthalpy; higher = less favourable; fluorescence melt of hairpins on a sequencing array, two-state fit
Settings: sodium 0.088 M
# output: bare number, implied unit kcal/mol

Solved cases (5 shown):
construct sequence: GGGTTGAAAAACCC (((((....)))))
folding enthalpy [kcal/mol]: -29.5
--
construct sequence: GTGCACGAAAGTGTTCAC ((((((....)))..)))
folding enthalpy [kcal/mol]: -12.3
--
construct sequence: GGCTGCGAAAGCACAGCC ((((((....)))..)))
folding enthalpy [kcal/mol]: -25.6
--
construct sequence: GACCAGCGAAAGCTGTC (((.(((....))))))
folding enthalpy [kcal/mol]: -11.3
--
construct sequence: GGTACTCGAAAGAGACC (((.(((....))))))
folding enthalpy [kcal/mol]: -23.6

Q) Form field: reported folding enthalpy of GGTTTTGGAAACGAAACC (((((.(....).)))))
A) -43.9

Q) Return reported folding enthalpy; argument: GATCGTTCTAACGATC ((((((....))))))
A) -39.7

Q) # query: folding enthalpy of entry GATCCGTTGCGGATC ((((((...))))))
A) -43

Q) Endpoint output: folding enthalpy of GCGAACGCTCGC ((((....)))) . Value?
A) -12.2

Q) Give its folding enthalpy value. Item: GATCCCCAGGGGATC ((((((...))))))
A) -33.1

----------
Assay: melting temperature; fluorescence melt of hairpins on a sequencing array, two-state fit, raised by 9.35 °C to match UV melts
Conditions: sodium 0.088 M
Label scheme for Tm: class 0 (below 40 °C), class 1 (40 °C to below 50 °C), class 2 (50 °C or more)

Worked set:
construct sequence: GCGTATGGAAACGTACGC (((((.(....).)))))
assigned class: class 2
//
construct sequence: GATTGCGAAAGCATGATC ((((((....)))..)))
assigned class: class 0
//
construct sequence: GATCACGAAAGTGCTATC ((((((....)))..)))
assigned class: class 0
//
construct sequence: GTTTGTGGAAACGCAAAC (((((.(....).)))))
assigned class: class 1
//
construct sequence: GCACCCGAAAGGGCTGC ((((((....))).)))
assigned class: class 2
//
construct sequence: GTTTGCGAAAGCATTAAC ((((((....)))..)))
assigned class: class 0
//
construct sequence: GATCCACGCATGGATC ((((((....))))))
assigned class: class 2
//
construct sequence: GATCTAGCAGTAGATC ((((((....))))))
assigned class: class 1
//
construct sequence: GGACGCGGAAACGCGCCC ((.((((....)))).))
assigned class: class 2
//
construct sequence: GCGTAGCGAAAGCGAGGC ((.(.((....)).).))
assigned class: class 1

Q) Consider GATCCCAGTGGGGATC ((((((....)))))) . To which Tm class does it belong?
A) class 2

Q) Input GCGTTCTACGC ((((...)))) ; output its category
A) class 2

Q) The entry to classify is GATCTAAAGTTAGATC ((((((....)))))) ; which class holds it?
A) class 0

Q) Class? Entry: GCCCACGAAAGTGAAGGC ((((((....)))..)))
A) class 2

Q) GET /class?item= GTCAACGAAAGTTATGAC ((((((....)))..)))
A) class 0

Q) Please let me know in which category the item GATGACCGAAAGGTATC (((.(((....)))))) belongs.
A) class 0

Q) Dear colleague, I would appreciate it if you could identify the bin for GTGCCGGGAAACCGGTAC ((.((((....)))).)) and reply at your convenience.
A) class 2

Q) Hi there! Could you help me figure out the category for CGCGGAATAGTCCGCG ((((((....)))))) please?
A) class 2

Q) Which category does the recorded Tm put GCGGTAACCCGC ((((....)))) in?
A) class 2

Q) Returns: class label. Input: GTTGTCGGAAACGACGAC ((.((((....)))).))
A) class 2

----------
Test: melting temperature; fluorescence melt of hairpins on a sequencing array, two-state fit, raised by 9.35 °C to match UV melts
Conditions: sodium 0.088 M
Tm values, listed per item
Express your answer in °C, writing the number without its unit.

Solved entries:
construct sequence: GATCCTTTTTAGGATC ((((((....))))))
quantitative readout: 53.9
--
construct sequence: GCGGAGCGAAAGCGCTGC ((.(.((....)).).))
quantitative readout: 57.1
--
construct sequence: GAGACGGCGAAAGCCCTC (((..(((....))))))
quantitative readout: 34.5
--
construct sequence: GACGGCGGAAACGCCATC ((.((((....)))).))
quantitative readout: 41.1
--
construct sequence: GCGTGTGGAAACATACGC ((((.((....)).))))
quantitative readout: 58.8

Q) I am curious: what Tm value has been reported for GCGTTTCGAAAGAAGCGC (((.(((....))).))) ?
A) 63.1

Q) Recorded Tm for GCTGAGGGAAACTTCGGC ((.((.(....).)).)) , please?
A) 33.8

Q) What value of measured Tm is listed for GCGAATGCGAAAGCACGC (((..(((....)))))) ?
A) 52.3

Q) Form field: reported Tm of GCCGTGCGAAAGCAATGC ((..(((....)))..))
A) 39.2

Q) Recorded Tm for GTCGGACGAAAGTCAGAC (((.(((....))).))) , please?
A) 59.3

Q) For the sequence GAAAAGGAAACTTTTC ((((((....)))))) , what Tm is on record?
A) 39.7

Q) Query (sequence): GCCTGCGGAAACGCAAGC ((.((((....)))).)) ; field requested: Tm
A) 48

----------
Assay: folding enthalpy; higher = less favourable; fluorescence melt of hairpins on a sequencing array, two-state fit
Conditions: sodium 0.088 M
measured parameter: folding enthalpy (kcal/mol)
Entry rule: numbers only, all in kcal/mol.

Consider the reported folding enthalpy for these sequences:
construct sequence: CGCGGACGATCCGCG ((((((...))))))
measured parameter: folding enthalpy
unit info: kcal/mol
quantitative readout: -35.3
//
construct sequence: GCACTCGGAAACGAGCGC ((.((((....)))).))
measured parameter: folding enthalpy
unit info: kcal/mol
quantitative readout: -38.9
//
construct sequence: GCTGTCGAAAGACCTAGC ((((((....)))..)))
measured parameter: folding enthalpy
unit info: kcal/mol
quantitative readout: -15.7

Q) What measured folding enthalpy goes with GGGCGTCCGAAAGGACCC (((..(((....)))))) ?
A) -13.9

Q) Request the reported folding enthalpy associated with GATCTGTTCGCAGATC ((((((....))))))
A) -47.6

Q) Which folding enthalpy value is on record for GCCACCGAAAGGTTGGC ((((((....))).))) ?
A) -33.9

Q) // query folding enthalpy value for entry GATCTCCCCGAGATC ((((((...))))))
A) -36.9

Q) Field request: folding enthalpy | item: GATCGAGCACTCGATC ((((((....))))))
A) -42.9

Q) Could you tell me which folding enthalpy is on file for GATCTGTCAGCAGATC ((((((....)))))) ?
A) -40.7

Q) Which value of folding enthalpy has been reported for GGACTCCGAAAGGATCC (((.(((....)))))) in the records?
A) -24.5

Q) // query folding enthalpy value for entry GTTCGCGAAAGCGTCAAC ((((((....)))..)))
A) -9.05

Q) Form field: reported folding enthalpy of GGTCAAGGAAACTTGATC (.(((((....))))).)
A) -34.1

----------
Reported folding enthalpy is given for each of the following sequences.
Assay: folding enthalpy; higher = less favourable; fluorescence melt of hairpins on a sequencing array, two-state fit
Conditions: sodium 0.088 M
Answer as a quantity: numeral, then unit.

construct sequence: GTGGCCGAAAGGCCCAC ((((((....))).)))
result: -10.5 kcal/mol

construct sequence: AGTCCGAAAGGACT (((((....)))))
result: -18.7 kcal/mol

construct sequence: GTATCTCGAAAGAGCTAC (((.(((....))).)))
result: -21.8 kcal/mol

Q) Look up folding enthalpy for this sequence: ACTGAGAAATCAGT (((((....)))))
A) -19.8 kcal/mol

Q) Item GGGATCCGAAAGGAACCC (((.(((....))).))) has what recorded folding enthalpy?
A) -46.3 kcal/mol

Q) Requested read-out: folding enthalpy. Entry: GATCCGCAAACGGATC ((((((....))))))
A) -42.2 kcal/mol

Q) Name the recorded folding enthalpy for GGGAGAGAAATCTCCC ((((((....)))))) .
A) -35 kcal/mol

Q) If you can, please state the reported folding enthalpy value of GCGACTGCGAAAGCACGC (((..(((....)))))) .
A) -15.3 kcal/mol

Q) Which folding enthalpy reading was recorded for the sequence GCGTGCGACGC ((((...)))) ?
A) -13.9 kcal/mol

Q) Return reported folding enthalpy; argument: GATAAGCGAAAGCTGATC (((.(((....))).)))
A) -26.3 kcal/mol

Q) Which folding enthalpy reading was recorded for the sequence GCATTCGAAAGAACATGC ((((((....)))..))) ?
A) -15.8 kcal/mol

Q) Look at this sequence and give its reported folding enthalpy. GAATGGGGAAACCTGTTC (((..((....))..)))
A) -13.1 kcal/mol

Q) If you can, please state the reported folding enthalpy value of GCAGGGCCGAAAGGCTGC (((..(((....)))))) .
A) -14.3 kcal/mol

Q) Return reported folding enthalpy; argument: GATCGGTCACCCGATC ((((((....))))))
A) -31.4 kcal/mol

Q) Please give the measured folding enthalpy for this sequence: GTGGTCCGAAAGGACAC (((.(((....))))))
A) -12.8 kcal/mol

Q) Tell me the measured folding enthalpy of CGCCCCGGAAACGGCGCG (((.(((....))).))) , please.
A) -36.5 kcal/mol

Q) What does the record list as folding enthalpy for GTTCCCCGAAAGGGAAC (((.(((....)))))) ?
A) -29.6 kcal/mol

Q) Requested field: folding enthalpy. Item: GATCCTCGAAGGATC ((((((...))))))
A) -26.7 kcal/mol

Q) Any idea what folding enthalpy was measured for GCTATGCGAAAGCACGGC ((..(((....)))..)) ?
A) -17.7 kcal/mol

Q) # lookup: folding enthalpy of GCTGTGGGAAACTGCAGC ((((..(....)..))))
A) -20.3 kcal/mol

Q) If you can, please state the reported folding enthalpy value of GCCCTGCGAAAGCCTGGC (((..((....))..))) .
A) -16.2 kcal/mol

Q) Quick one: folding enthalpy for GAGGACACGAAAGTGCTC (((..(((....)))))) ?
A) -14.4 kcal/mol
